Provide the recorded percent inhibition of human Factor 11 mRNA relative to untreated control cells for the entries that follow.
System: human Factor 11 mRNA
protocol.description: Dose-dependent inhibition of human Factor 11 in cyano primary hepatocytes, electroporation (Example 6)
Type: cell-based
condition.context: 6.7 nM, ~16 hours
Answers without a unit are incomplete; give the number and then its unit.

I need percent inhibition of human Factor 11 mRNA relative to untreated control cells for every entry listed below, if you could help.
1. 416892 (antisense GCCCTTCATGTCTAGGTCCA; 3-14-3 chimeric gapmer, further chemistry not given here) [compound 416892]
2. 417003 (antisense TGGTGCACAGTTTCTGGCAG; 2-13-5 gapmer chemistry, further chemistry not given here) [compound 417003]
3. 416850 (antisense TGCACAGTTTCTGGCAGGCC; 5-10-5 gapmer, further chemistry not given here) [compound 416850]
4. 416925 (antisense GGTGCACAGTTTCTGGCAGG; 3-14-3 gapmer chemistry, further chemistry not given here) [compound 416925]
5. 416858 (antisense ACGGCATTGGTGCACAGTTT; 5-10-5 gapmer, further chemistry not given here) [compound 416858]

## Result
43%
19%
24%
1%
22%

## Task Dear colleague, I am looking for the recorded percent inhibition of human Factor 11 mRNA relative to untreated control cells of the following substance: 416999 (antisense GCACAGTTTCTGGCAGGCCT; 2-13-5 gapmer chemistry, further chemistry not given here) [compound 416999]
## Result 36%

----------
protocol.description: Hematology assays in cynomolgus monkeys (Example 45)
Assay type: in vivo
condition.context: day 50; escalating dose regimen
quantity.name: MCH (pg)
Answers are plain numbers, in pg.

Below, 3 substances whose answers are already recorded.
- substance: "ISIS 416864: MOE gapmer, nucleobases 1275 to 1318 of SEQ ID NO: 1 (Table 8) (antisense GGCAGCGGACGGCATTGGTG; MOE gapmer, wing and gap sizes not given here)"
  MCH / pg: 22
- substance: "ISIS 416838: MOE gapmer, nucleobases 1018 to 1042 of SEQ ID NO: 1 (Table 6) (antisense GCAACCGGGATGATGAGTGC; MOE gapmer, wing and gap sizes not given here)"
  MCH / pg: 23
- substance: "ISIS 416858: MOE gapmer, nucleobases 1275 to 1318 of SEQ ID NO: 1 (Table 8) (antisense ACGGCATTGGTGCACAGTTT; MOE gapmer, wing and gap sizes not given here)"
  MCH / pg: 23

I need MCH for every entry listed below, if you could help.
1. ISIS 416850: MOE gapmer, nucleobases 1275 to 1318 of SEQ ID NO: 1 (Table 8) (antisense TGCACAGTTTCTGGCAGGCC; MOE gapmer, wing and gap sizes not given here)
2. ISIS 417002: MOE gapmer, nucleobases 1275 to 1318 of SEQ ID NO: 1 (Table 8) (antisense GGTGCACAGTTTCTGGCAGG; MOE gapmer, wing and gap sizes not given here)

## Result
[23, 23]

----------
protocol.description: Hematology assays in cynomolgus monkeys (Example 46)
Type: in vivo
condition.context: Day 17
Strand notation (5' to 3'): a small letter for the sugar, then the base; units joined by * are phosphorothioate-linked, units joined directly phosphodiester-linked; [ ] holds rarer units or linkages, { } end groups; capitals alone tell only the bases. e = 2'-O-(2-methoxyethyl) (MOE); [5mC] = 5-methylcytosine; d = 2'-deoxy (DNA)
quantity.name: WBC count

Below, 8 substances whose answers are already recorded.
- substance: "ISIS 445531: 5-8-5 or 6-8-6 MOE microwalk gapmer (Table 44) (antisense eG*eG*e[5mC]*eA*eT*dT*dG*dG*dT*dG*d[5mC]*dA*d[5mC]*eA*eG*eT*eT*eT)"
  WBC count: "17000 µL⁻¹"
- substance: "ISIS 449709: 3-8-3, 4-8-4, 2-10-2, 3-10-3 or 4-10-4 MOE microwalk gapmer (Table 46) (antisense eG*e[5mC]*eA*e[5mC]*dA*dG*dT*dT*dT*d[5mC]*dT*dG*dG*d[5mC]*eA*eG*eG*e[5mC])"
  WBC count: "11000 µL⁻¹"
- substance: "ISIS 416858: MOE gapmer, nucleobases 1275 to 1318 of SEQ ID NO: 1 (Table 8) (antisense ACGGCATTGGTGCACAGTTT; MOE gapmer, wing and gap sizes not given here)"
  WBC count: "10000 µL⁻¹"
- substance: "ISIS 449708: 3-8-3, 4-8-4, 2-10-2, 3-10-3 or 4-10-4 MOE microwalk gapmer (Table 46) (antisense eA*e[5mC]*eA*dG*dT*dT*dT*d[5mC]*dT*dG*dG*e[5mC]*eA*eG)"
  WBC count: "11000 µL⁻¹"
- substance: "ISIS 449710: 3-8-3, 4-8-4, 2-10-2, 3-10-3 or 4-10-4 MOE microwalk gapmer (Table 46) (antisense e[5mC]*eA*e[5mC]*dA*dG*dT*dT*dT*d[5mC]*dT*dG*dG*d[5mC]*eA*eG*eG)"
  WBC count: "12000 µL⁻¹"
- substance: "ISIS 416850: MOE gapmer, nucleobases 1275 to 1318 of SEQ ID NO: 1 (Table 8) (antisense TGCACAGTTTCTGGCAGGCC; MOE gapmer, wing and gap sizes not given here)"
  WBC count: "11000 µL⁻¹"
- substance: "ISIS 449711: 3-8-3, 4-8-4, 2-10-2, 3-10-3 or 4-10-4 MOE microwalk gapmer (Table 46) (antisense eA*e[5mC]*dA*dG*dT*dT*dT*d[5mC]*dT*dG*dG*d[5mC]*eA*eG)"
  WBC count: "10000 µL⁻¹"
- substance: "ISIS 445522: 5-8-5 or 6-8-6 MOE microwalk gapmer (Table 44) (antisense eG*e[5mC]*eA*e[5mC]*eA*dG*dT*dT*dT*d[5mC]*dT*dG*dG*e[5mC]*eA*eG*eG*e[5mC])"
  WBC count: "11000 µL⁻¹"

## Task Dear colleague, I am looking for the recorded WBC count of the following substance: ISIS 449707: 3-8-3, 4-8-4, 2-10-2, 3-10-3 or 4-10-4 MOE microwalk gapmer (Table 46) (antisense e[5mC]*eA*e[5mC]*eA*dG*dT*dT*dT*d[5mC]*dT*dG*dG*e[5mC]*eA*eG*eG)
## Result 12000 µL⁻¹

These entries and their values trace back to patent US20230263822A1.
